Cited source: ChEMBL document CHEMBL5230096

target: CDK2/Cyclin A2 (Homo sapiens); test: Inhibition of CDK2/cyclin A2 (unknown origin) expressed in baculovirus expression system incubated for 1 hr using Ser/Thr12 Peptide as substrate in presence of ATP by Z-LYTE kinase assay
value.type: IC50 (nM)
Just the number please, in nM, no unit attached.

Record CCC(CO)Nc1nc(NCc2ccccn2)c2ncn(CC)c2c1[N+](=O)[O-] (stereo unspecified) , field IC50: 21

* * *

biological target: CDK2/Cyclin A2 (Homo sapiens); assay: Inhibition of CDK2/cyclin A2 (unknown origin) using histone as substrate in presence of ATP by luminescent ADP detection assay; assay type: protein-complex assay
pIC50: −log10 of the molar value.
The entries below come with measured pIC50 values attached.

> print(dat)
                            compound.string  result.value
1  O=C(Nc1ccc(F)cc1)c1cnn(-c2cc(NCc3ccccc3)ncn2)c1        > 7.70
2  O=C(c1cnn(-c2cc(NCc3ccccc3)ncn2)c1)N1CCOCC1        > 7.70
3  O=C(Nc1ccc(O)cc1)c1cnn(-c2cc(NCc3ccccc3)ncn2)c1        > 7.70
4  CN1CCN(C(=O)c2cnn(-c3cc(NCc4ccccc4)ncn3)c2)CC1        > 7.70

Tested system CDK2/Cyclin A2 (Homo sapiens); pIC50 recorded for COc1ccc(NC(=O)c2cnn(-c3cc(NCc4ccccc4)ncn3)c2)cc1 was > 7.70

* * *

molecular target: CDK7/Cyclin H/MNAT1 (Homo sapiens, UniProt P50613); experiment: Inhibition of CDK7/Cyclin H/MNAT1 (unknown origin) using 5-FAM-YSPTSPSYSPTSPSYSPTSPSKKK as substrate in presence of ATP by spectroscopic analysis; type: protein-complex assay
Sequence (P51946 whole entry): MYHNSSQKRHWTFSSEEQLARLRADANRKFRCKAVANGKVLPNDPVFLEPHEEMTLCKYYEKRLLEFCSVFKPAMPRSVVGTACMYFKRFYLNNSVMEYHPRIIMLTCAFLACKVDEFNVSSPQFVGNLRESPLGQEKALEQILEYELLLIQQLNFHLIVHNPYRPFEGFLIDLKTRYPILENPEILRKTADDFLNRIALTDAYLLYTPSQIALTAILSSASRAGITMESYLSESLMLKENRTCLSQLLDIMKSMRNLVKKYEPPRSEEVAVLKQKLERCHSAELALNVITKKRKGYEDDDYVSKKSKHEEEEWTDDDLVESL
Sequence (P50613 whole entry): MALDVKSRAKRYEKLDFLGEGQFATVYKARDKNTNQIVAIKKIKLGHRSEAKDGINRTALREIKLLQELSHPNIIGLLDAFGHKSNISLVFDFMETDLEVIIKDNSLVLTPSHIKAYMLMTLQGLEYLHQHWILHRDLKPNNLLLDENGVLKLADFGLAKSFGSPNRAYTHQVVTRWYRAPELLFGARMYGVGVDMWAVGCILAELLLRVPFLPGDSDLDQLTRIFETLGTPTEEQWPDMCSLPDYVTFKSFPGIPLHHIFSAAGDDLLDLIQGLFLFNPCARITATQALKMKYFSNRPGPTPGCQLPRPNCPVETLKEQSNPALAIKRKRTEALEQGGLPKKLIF
Sequence (P51948 whole entry, further chain): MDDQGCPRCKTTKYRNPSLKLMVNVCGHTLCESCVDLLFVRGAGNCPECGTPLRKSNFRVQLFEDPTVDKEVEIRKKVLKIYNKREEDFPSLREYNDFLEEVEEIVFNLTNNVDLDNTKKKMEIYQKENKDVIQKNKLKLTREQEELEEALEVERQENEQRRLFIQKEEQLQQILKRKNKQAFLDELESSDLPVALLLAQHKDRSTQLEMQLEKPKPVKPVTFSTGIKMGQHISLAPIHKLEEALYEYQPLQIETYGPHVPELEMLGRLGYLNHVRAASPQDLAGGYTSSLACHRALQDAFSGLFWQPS
value.type: IC50 (nM)
Just the number please, in nM, no unit attached.

Tested system CDK7/Cyclin H/MNAT1 (Homo sapiens, UniProt P50613); IC50 recorded for CN(C)C/C=C/C(=O)Nc1ccc(C(=O)N[C@@]2(C)CCC[C@@H](Nc3ncc(Cl)c(-c4c[nH]c5ccccc45)n3)C2)nc1 was 20

* * *

test system: HeLa; test: Antiproliferative activity against human HeLa cells assessed as reduction in cell viability incubated for 3 days by MTT assay; assay type: functional, cell-based; conditions: 72 h
value.type: IC50 (µM)
Just the number please, in µM, no unit attached.

Record COc1cccc2c1C(=O)c1c(O)c3c(c(O)c1C2=O)C[C@@](O)(C(=O)CO)C[C@@H]3O[C@H]1C[C@H](N)[C@H](O)[C@H](C)O1 , field IC50: 1.11

* * *

assay: Cytotoxicity against human L02 cells assessed cell growth inhibition incubated for 2 days by MTT assay; type: toxicity, cell-based
value.type: IC50 at 2 days (µM)
Just the number please, in µM, no unit attached.

Record Nc1c([N+](=O)[O-])cnc(NC2CCCCC2)c1[N+](=O)[O-] , field IC50 at 2 days: 86.7

* * *

molecular target: Cyclin-dependent kinase 2/cyclin E1 (Homo sapiens, UniProt P24941); test: Inhibition of CDK2/cyclin E1 (unknown origin) expressed in Sf9 cells using histone H1 as substrate in presence of ATP by microplate reader analysis
pIC50: −log10 of the molar value.
Label 1 when pIC50 >= 5; otherwise 0.

> print(dat)
                          compound.string  label.class
1  CCCCCSc1nc(OC(=O)c2ccccc2)c2cn[nH]c2n1            0
2   CCCCCSc1nc(OC(=O)c2ccco2)c2cn[nH]c2n1            0

Has CCCCCSc1nc(OC(=O)CC(C)(C)C)c2cn[nH]c2n1 a recorded pIC50 greater than or equal to 5? 0

Has CCCCCSc1nc(Nc2ccccc2Cl)c2cn[nH]c2n1 a recorded pIC50 greater than or equal to 5? 1

* * *

molecular target: UniProt:P06493
Sequence (P06493 whole entry): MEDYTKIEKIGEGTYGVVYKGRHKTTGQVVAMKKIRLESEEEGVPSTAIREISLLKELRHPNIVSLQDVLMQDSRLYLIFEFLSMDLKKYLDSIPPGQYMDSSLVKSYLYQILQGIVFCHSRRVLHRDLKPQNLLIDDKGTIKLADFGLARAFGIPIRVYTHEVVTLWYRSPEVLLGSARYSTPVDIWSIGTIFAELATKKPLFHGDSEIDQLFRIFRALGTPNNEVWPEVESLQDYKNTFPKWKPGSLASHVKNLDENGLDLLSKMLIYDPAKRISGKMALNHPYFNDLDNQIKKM
value.type: Ki (pM)
Just the number please, in pM, no unit attached.

Tested system UniProt:P06493; Ki recorded for CC(=O)N1N=C(c2c(O)c3ccccc3oc2=O)CC1c1ccccc1Cl (stereo unspecified) was 350

* * *

molecular target: Cyclin-dependent kinase 2 (Homo sapiens, UniProt P24941); experiment: Inhibition of CDK2 (unknown origin) incubated for 10 min using histone H1 as substrate in presence of gamma32P-ATP by radioactive assay
value.type: pIC50
// field semantics: pIC50 = negative decimal log of concentration (mol/L)

Record Nc1c([N+](=O)[O-])cnc(NC2CCCCC2)c1[N+](=O)[O-] , field pIC50: 5.74

* * *

target: Cyclin-dependent kinase 2/cyclin E1 (Homo sapiens); experiment: Inhibition of CDK2/cyclin E1 (unknown origin) expressed in Sf9 cells using histone H1 as substrate in presence of ATP by microplate reader analysis
value.type: pIC50
// field semantics: pIC50 = negative decimal log of concentration (mol/L)

Below are worked cases with known answers.
> print(dat)
                            compound.string                             target.entity  result.value
1  Clc1ccccc1Nc1nc(SCCc2ccccc2)nc2[nH]ncc12  Cyclin-dependent kinase 2/cyclin E1 (Homo sapiens)          5.11
2     CCCCCSc1nc(Nc2ccc(SC)cc2)c2cn[nH]c2n1  Cyclin-dependent kinase 2/cyclin E1 (Homo sapiens)          5.06
3  CCCCCSc1nc(OC(=O)c2cc3ccccc3o2)c2cn[nH]c2n1  Cyclin-dependent kinase 2/cyclin E1 (Homo sapiens)          5.06

Could you now consider this next compound?
Record O=[N+]([O-])c1cccc(Nc2nc(SCCc3ccccc3)nc3[nH]ncc23)c1 , field pIC50: 5.06
